System: M2 cells
protocol notes: Troglitazone-induced adipogenesis, oil Red O staining and adipocyte count
Type: cell-based, mouse
conditions: troglitazone 10 μM, oxysterols 10 μM, 8-10 days

compound	inhibition of adipogenesis
CC(C)CC[C@@H](O)[C@@H](C)[C@H]1CC[C@H]2[C@@H]3CC=C4C[C@@H](O)CC[C@]4(C)[C@H]3CC[C@]12C [22R-hydroxycholesterol]	inhibited adipogenesis
CC(C)CC[C@H](O)[C@@H](C)[C@H]1CC[C@H]2[C@@H]3CC=C4C[C@@H](O)CC[C@]4(C)[C@H]3CC[C@]12C [22S-hydroxycholesterol]	inhibited adipogenesis
CC(C)CCC[C@](C)(O)[C@H]1CC[C@H]2[C@@H]3CC=C4C[C@@H](O)CC[C@]4(C)[C@H]3CC[C@@]21C [20S-hydroxycholesterol]	inhibited adipogenesis
